- method_notes: Apparent permeability of the compound across apical side to basolateral side in human Caco-2 cells incubated for 1 hr by LC-MS/MS analysis
- condition_notes: caco-2, 1 h
assay_endpoint: Papp

>>> value_reported("COCc1nn(Cc2ccc(Cn3ccccc3=O)cc2)cc1C(=O)NCc1nccc(OC)c1F")
"9 10^-6 cm/s"
>>> value_reported("COCc1nn(Cc2ccc(Cn3ccccc3=O)cc2)cc1C(=O)NCc1cccc(OC)c1F")
"25 10^-6 cm/s"
>>> value_reported("COCc1nn(Cc2ccc(Cn3ccccc3=O)cc2)cc1C(=O)NCc1c(F)ccc(OC)c1F")
"18 10^-6 cm/s"
>>> value_reported("COCc1nn(Cc2ccc(Cn3ccccc3=O)cc2)cc1C(=O)NCc1c(C#N)ccc(OC)c1F")
"14 10^-6 cm/s"
>>> value_reported("COc1ccc(F)c(CNC(=O)c2cn(Cc3ccc(Cn4ccccc4=O)cc3)nc2CN(C)C)c1F")
"14 10^-6 cm/s"
>>> value_reported("COc1ccnc(CNC(=O)c2cn(Cc3ccc(Cn4ccccc4=O)cc3)nc2C(F)(F)F)c1F")
"17 10^-6 cm/s"

---

- method_notes: Thermodynamic solubility of the compound in FaSSIF at 1 mg/ml at pH 6.5 measured after 4 hrs
- Assay type: physicochemical
- condition_notes: FaSSIF, pH 6.5, read-out: Therm_solubility
assay_endpoint: solubility thermodynamic at 4 h (µg/mL)

>>> value_reported("COCc1nn(Cc2ccc(Cn3ccccc3=O)cc2)cc1C(=O)NCc1c(C#N)ccc(OC)c1F")
31

---

- assayed_system: Plasma kallikrein (Homo sapiens)
- method_notes: Inhibition of human plasma kallikrein using H-D-Pro-Phe-Arg-AFC as flurogenic substrate at 100 nM preincubated for 5 mins followed by substrate addition by fluorometer analysis relative to control
- Format: cell-free
We use 40% as the dividing line for inhibition: on or above the line is YES, below is NO.

>>> category_label("O=C(NCc1c(F)cccc1C(F)(F)F)c1cnn(Cc2ccc(Cn3ccccc3=O)cc2)c1")
"YES"
>>> category_label("O=C(NCc1cccc(Cl)c1)c1cnn(Cc2ccc(Cn3ccccc3=O)cc2)c1")
"NO"
>>> category_label("O=C(NCc1ccccc1F)c1cnn(Cc2ccc(Cn3ccccc3=O)cc2)c1")
"NO"
>>> category_label("COc1cccc(CNC(=O)c2cnn(Cc3ccc(Cn4ccccc4=O)cc3)c2)c1")
"NO"
>>> category_label("O=C(NCc1c(Cl)cccc1Cl)c1cnn(Cc2ccc(Cn3ccccc3=O)cc2)c1")
"YES"

---

- method_notes: Clearance in Sprague-Dawley rat blood at 1 mg/kg, iv measured upto 24 hrs by LC-MS analysis
- Assay type: ADME, organism-based
- condition_notes: whole blood
assay_endpoint: clearance (mL/min/kg)

>>> value_reported("COCc1nn(Cc2ccc(Cn3ccccc3=O)cc2)cc1C(=O)NCc1nccc(OC)c1F")
20.9
>>> value_reported("COc1ccnc(CNC(=O)c2cn(Cc3ccc(Cn4ccccc4=O)cc3)nc2C(F)(F)F)c1F")
11.1
>>> value_reported("COCc1nn(Cc2ccc(Cn3ccccc3=O)cc2)cc1C(=O)NCc1nccc(OC)c1C")
35
>>> value_reported("COCc1nn(Cc2ccc(Cn3ccccc3=O)cc2)cc1C(=O)NCc1c(C#N)ccc(OC)c1F")
27.6
>>> value_reported("COCc1nn(Cc2ccc(Cn3ccccc3=O)cc2)cc1C(=O)NCc1c(F)ccc(OC)c1F")
23.7

---

Below is a list of entries, each paired with its recorded IC50 value.
- assayed_system: UniProt P05177
- Sequence (P05177 whole entry): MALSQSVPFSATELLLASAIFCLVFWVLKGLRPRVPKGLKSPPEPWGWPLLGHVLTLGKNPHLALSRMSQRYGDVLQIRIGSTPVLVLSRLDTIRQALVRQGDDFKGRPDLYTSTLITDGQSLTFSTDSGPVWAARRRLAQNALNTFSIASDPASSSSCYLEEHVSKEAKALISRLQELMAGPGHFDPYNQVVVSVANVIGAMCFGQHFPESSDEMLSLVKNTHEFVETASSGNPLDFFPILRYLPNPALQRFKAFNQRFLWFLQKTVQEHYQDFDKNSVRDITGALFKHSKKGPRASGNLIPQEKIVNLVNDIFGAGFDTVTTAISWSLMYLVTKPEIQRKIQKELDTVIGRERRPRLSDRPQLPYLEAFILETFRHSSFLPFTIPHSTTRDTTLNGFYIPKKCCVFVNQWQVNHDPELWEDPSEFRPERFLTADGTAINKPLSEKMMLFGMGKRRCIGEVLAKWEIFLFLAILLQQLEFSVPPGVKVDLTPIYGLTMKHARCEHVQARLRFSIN
assay_endpoint: IC50

>>> value_reported("COCc1nn(Cc2ccc(Cn3ccccc3=O)cc2)cc1C(=O)NCc1nccc(OC)c1F")
"> 25 µM"
>>> value_reported("COCc1nn(Cc2ccc(Cn3ccccc3=O)cc2)cc1C(=O)NCc1c(F)ccc(OC)c1F")
"> 25 µM"
>>> value_reported("COc1ccnc(CNC(=O)c2cn(Cc3ccc(Cn4ccccc4=O)cc3)nc2C(F)(F)F)c1F")
"> 25 µM"

---

- method_notes: Oral bioavailability in Sprague-Dawley rat at 10 mg/kg measured upto 24 hrs by LC-MS analysis
- Type: ADME, organism-based
- condition_notes: in vivo
We use 60% as the dividing line for F: on or above the line is 1, below is -1.

>>> category_label("COCc1nn(Cc2ccc(Cn3ccccc3=O)cc2)cc1C(=O)NCc1c(C#N)ccc(OC)c1F")
-1
>>> category_label("COCc1nn(Cc2ccc(Cn3ccccc3=O)cc2)cc1C(=O)NCc1nccc(OC)c1C")
-1
>>> category_label("COCc1nn(Cc2ccc(Cn3ccccc3=O)cc2)cc1C(=O)NCc1c(F)ccc(OC)c1F")
1
>>> category_label("COc1ccnc(CNC(=O)c2cn(Cc3ccc(Cn4ccccc4=O)cc3)nc2C(F)(F)F)c1F")
1
>>> category_label("COCc1nn(Cc2ccc(Cn3ccccc3=O)cc2)cc1C(=O)NCc1nccc(OC)c1F")
1

---

- assayed_system: Cathepsin G (Homo sapiens)
- Sequence (P08311 whole entry): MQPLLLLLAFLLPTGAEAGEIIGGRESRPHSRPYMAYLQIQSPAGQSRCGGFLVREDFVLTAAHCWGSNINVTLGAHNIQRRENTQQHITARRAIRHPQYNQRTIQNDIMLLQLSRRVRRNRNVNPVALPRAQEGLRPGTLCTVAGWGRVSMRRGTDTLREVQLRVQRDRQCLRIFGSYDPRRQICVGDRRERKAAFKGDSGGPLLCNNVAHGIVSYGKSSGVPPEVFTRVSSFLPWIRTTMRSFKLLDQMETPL
assay_endpoint: IC50

>>> value_reported("COCc1nn(Cc2ccc(Cn3ccccc3=O)cc2)cc1C(=O)NCc1nccc(OC)c1F")
"> 10 µM"

---

Below is a list of entries, each paired with its recorded LBF value.
- method_notes: Clearance in Sprague-Dawley rat assessed as liver blood flow at 1 mg/kg, iv measured upto 24 hrs by LC-MS analysis
- Type: ADME, organism-based
- condition_notes: in vivo
assay_endpoint: LBF (%)

>>> value_reported("COCc1nn(Cc2ccc(Cn3ccccc3=O)cc2)cc1C(=O)NCc1nccc(OC)c1F [SEBETRALSTAT]")
26
>>> value_reported("COCc1nn(Cc2ccc(Cn3ccccc3=O)cc2)cc1C(=O)NCc1c(C#N)ccc(OC)c1F")
35
>>> value_reported("COCc1nn(Cc2ccc(Cn3ccccc3=O)cc2)cc1C(=O)NCc1c(F)ccc(OC)c1F")
30
>>> value_reported("COCc1nn(Cc2ccc(Cn3ccccc3=O)cc2)cc1C(=O)NCc1nccc(OC)c1C")
44
>>> value_reported("COc1ccnc(CNC(=O)c2cn(Cc3ccc(Cn4ccccc4=O)cc3)nc2C(F)(F)F)c1F")
14

---

- assayed_system: Kallikrein-1 (Homo sapiens)
- Sequence (P06870 whole entry): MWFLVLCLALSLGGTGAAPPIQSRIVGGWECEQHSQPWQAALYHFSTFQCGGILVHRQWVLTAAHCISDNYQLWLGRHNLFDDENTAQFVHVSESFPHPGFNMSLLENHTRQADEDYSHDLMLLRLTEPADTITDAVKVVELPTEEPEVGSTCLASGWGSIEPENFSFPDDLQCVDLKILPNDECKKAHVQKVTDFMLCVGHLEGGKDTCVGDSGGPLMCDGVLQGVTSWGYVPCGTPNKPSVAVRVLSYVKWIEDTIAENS
pIC50: −log10 of the molar value.
assay_endpoint: pIC50

>>> value_reported("COCc1nn(Cc2ccc(Cn3ccccc3=O)cc2)cc1C(=O)NCc1nccc(OC)c1F")
"< 4.40"

---

- method_notes: Thermodynamic solubility of the compound in FaSSGF at 1 mg/ml at pH 1.6 measured after 4 hrs
- Assay type: physicochemical
- condition_notes: FaSSGF, pH 1.6, read-out: Therm_solubility
assay_endpoint: solubility thermodynamic at 4 h

>>> value_reported("COCc1nn(Cc2ccc(Cn3ccccc3=O)cc2)cc1C(=O)NCc1c(C#N)ccc(OC)c1F")
"21 µg/mL"
>>> value_reported("COCc1nn(Cc2ccc(Cn3ccccc3=O)cc2)cc1C(=O)NCc1nccc(OC)c1C")
"970 µg/mL"

---

Reported pIC50 for target or system Cytochrome P450 2B6 (Homo sapiens, UniProt P20813), by entry.
pIC50: −log10 of the molar value.
assay_endpoint: pIC50

>>> value_reported("COCc1nn(Cc2ccc(Cn3ccccc3=O)cc2)cc1C(=O)NCc1nccc(OC)c1F")
"< 4.60"
>>> value_reported("COCc1nn(Cc2ccc(Cn3ccccc3=O)cc2)cc1C(=O)NCc1c(F)ccc(OC)c1F")
"< 4.60"

---

- assayed_system: Plasma kallikrein (Homo sapiens, UniProt P03952)
- Sequence (P03952 20-390 limits assumed): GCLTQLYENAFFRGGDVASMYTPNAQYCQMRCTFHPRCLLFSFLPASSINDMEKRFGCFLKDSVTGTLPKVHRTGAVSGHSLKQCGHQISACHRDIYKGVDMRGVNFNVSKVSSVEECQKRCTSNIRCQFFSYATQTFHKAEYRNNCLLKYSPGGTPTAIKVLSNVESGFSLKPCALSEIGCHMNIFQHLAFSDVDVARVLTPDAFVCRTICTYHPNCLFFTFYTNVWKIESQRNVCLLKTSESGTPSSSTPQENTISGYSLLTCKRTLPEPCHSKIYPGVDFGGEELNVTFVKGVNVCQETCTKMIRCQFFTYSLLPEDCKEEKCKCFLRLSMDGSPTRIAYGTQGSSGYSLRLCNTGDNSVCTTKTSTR
- Sequence (P03952 391-638 limits assumed): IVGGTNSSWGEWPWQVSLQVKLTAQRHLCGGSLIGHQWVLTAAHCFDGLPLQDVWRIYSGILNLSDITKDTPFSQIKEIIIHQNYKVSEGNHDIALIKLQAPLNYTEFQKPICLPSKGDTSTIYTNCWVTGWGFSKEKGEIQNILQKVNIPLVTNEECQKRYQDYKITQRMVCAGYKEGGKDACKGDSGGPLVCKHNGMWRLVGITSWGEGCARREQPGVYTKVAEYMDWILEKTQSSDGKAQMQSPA
- method_notes: Inhibition of human plasma kallikrein using H-D-Pro-Phe-Arg-AFC as flurogenic substrate at 1000 nM preincubated for 5 mins followed by substrate addition by fluorometer analysis relative to control
- Assay type: cell-free
Below is a list of entries, each paired with its recorded inhibition value.
assay_endpoint: inhibition (%)

>>> value_reported("O=C(NCc1ccc(Cl)cc1)c1cnn(Cc2ccc(Cn3ccccc3=O)cc2)c1")
60
>>> value_reported("O=C(NCc1c(Cl)cccc1Cl)c1cnn(Cc2ccc(Cn3ccccc3=O)cc2)c1")
94
>>> value_reported("Cc1ccc(CNC(=O)c2cnn(Cc3ccc(Cn4ccccc4=O)cc3)c2)cc1")
84
>>> value_reported("Cc1cccc(CNC(=O)c2cnn(Cc3ccc(Cn4ccccc4=O)cc3)c2)c1")
57
>>> value_reported("O=C(NCc1ccccc1Cl)c1cnn(Cc2ccc(Cn3ccccc3=O)cc2)c1")
67
>>> value_reported("O=C(NCc1cccc(Cl)c1)c1cnn(Cc2ccc(Cn3ccccc3=O)cc2)c1")
74
>>> value_reported("O=C(NCc1c(F)cccc1C(F)(F)F)c1cnn(Cc2ccc(Cn3ccccc3=O)cc2)c1")
97
>>> value_reported("O=C(NCc1ccccc1)c1cnn(Cc2ccc(Cn3ccccc3=O)cc2)c1")
29
>>> value_reported("COc1ccc(CNC(=O)c2cnn(Cc3ccc(Cn4ccccc4=O)cc3)c2)cc1")
72
>>> value_reported("O=C(NCc1c(F)cccc1Cl)c1cnn(Cc2ccc(Cn3ccccc3=O)cc2)c1")
92
>>> value_reported("O=C(NCc1c(F)cccc1F)c1cnn(Cc2ccc(Cn3ccccc3=O)cc2)c1")
88
>>> value_reported("COc1ccccc1CNC(=O)c1cnn(Cc2ccc(Cn3ccccc3=O)cc2)c1")
63
>>> value_reported("Cc1cccc(C)c1CNC(=O)c1cnn(Cc2ccc(Cn3ccccc3=O)cc2)c1")
89
>>> value_reported("O=C(NCc1ccccc1F)c1cnn(Cc2ccc(Cn3ccccc3=O)cc2)c1")
59
>>> value_reported("COc1cccc(CNC(=O)c2cnn(Cc3ccc(Cn4ccccc4=O)cc3)c2)c1")
83
>>> value_reported("Cc1ccccc1CNC(=O)c1cnn(Cc2ccc(Cn3ccccc3=O)cc2)c1")
62

// provenance: ChEMBL document CHEMBL5108074
